Molecular target: EGFR V3 (Homo sapiens, UniProt P00533, DELINS30-297G)
Construct: expressed in transfected cells; host or cells: BaF3 (murine pro-B), retroviral pMXs-IRES-Blasticidin
Sequence (P00533 with tags, fused parts or gaps DELINS30-297G): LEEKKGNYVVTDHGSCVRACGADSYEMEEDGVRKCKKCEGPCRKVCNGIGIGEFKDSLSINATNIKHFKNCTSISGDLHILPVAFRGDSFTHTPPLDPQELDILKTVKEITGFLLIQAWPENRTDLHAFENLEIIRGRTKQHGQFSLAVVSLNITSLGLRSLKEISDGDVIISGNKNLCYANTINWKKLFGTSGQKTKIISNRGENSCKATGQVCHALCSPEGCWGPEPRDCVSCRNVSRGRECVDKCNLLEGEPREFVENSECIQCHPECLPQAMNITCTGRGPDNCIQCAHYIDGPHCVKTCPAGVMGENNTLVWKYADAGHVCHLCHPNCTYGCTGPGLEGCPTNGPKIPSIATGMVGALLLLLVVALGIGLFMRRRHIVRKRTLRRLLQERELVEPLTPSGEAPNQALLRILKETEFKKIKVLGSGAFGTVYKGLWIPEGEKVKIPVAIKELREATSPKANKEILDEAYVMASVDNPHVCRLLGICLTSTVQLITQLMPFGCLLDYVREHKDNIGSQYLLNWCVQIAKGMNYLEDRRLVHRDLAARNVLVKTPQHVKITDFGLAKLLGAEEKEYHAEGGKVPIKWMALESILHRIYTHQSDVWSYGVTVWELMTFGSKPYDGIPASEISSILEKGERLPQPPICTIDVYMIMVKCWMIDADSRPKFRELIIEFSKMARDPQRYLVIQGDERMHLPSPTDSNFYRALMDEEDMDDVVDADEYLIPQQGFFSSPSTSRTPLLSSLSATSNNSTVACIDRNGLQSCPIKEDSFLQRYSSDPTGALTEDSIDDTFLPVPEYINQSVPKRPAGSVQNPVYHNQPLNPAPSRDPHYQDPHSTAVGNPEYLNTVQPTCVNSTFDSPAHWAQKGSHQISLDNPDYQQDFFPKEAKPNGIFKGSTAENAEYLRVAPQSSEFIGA
Test: BaF3 cell proliferation assay, EGFR V3 (Table A)
Assay type: cell-based
Settings: potency code, 3 days, CellTiterGlo, read-out: EGFR V3 (Activity for Inhibiting EGFR)
ENDPOINT: IC50

Form: Entry = C=CC(=O)Nc1cc2c(Nc3ccc(OCc4cccc(F)n4)c(Cl)c3)ncnc2cc1OCCN1CCOCC1 | System = EGFR V3 (Homo sapiens, UniProt P00533, DELINS30-297G) | IC50 = ____
0.03 to 0.05 µM

Form: Entry = C=CC(=O)Nc1cc2c(Nc3ccc(OCc4cccc(F)c4)c(Cl)c3)ncnc2cc1OCCN1CCOCC1 | System = EGFR V3 (Homo sapiens, UniProt P00533, DELINS30-297G) | IC50 = ____
0.03 to 0.05 µM

Form: Entry = C=CC(=O)Nc1cc2c(Nc3ccc(OCc4ccccn4)c(Cl)c3)ncnc2cc1OCCN(C)C1CC1 | System = EGFR V3 (Homo sapiens, UniProt P00533, DELINS30-297G) | IC50 = ____
0.03 to 0.05 µM

Form: Entry = CC#CC(=O)Nc1cc2c(Nc3ccc(OCc4ncccn4)c(Cl)c3)ncnc2cc1OCCCN1CCOCC1 | System = EGFR V3 (Homo sapiens, UniProt P00533, DELINS30-297G) | IC50 = ____
0.03 to 0.05 µM

Form: Entry = CC#CC(=O)Nc1cc2c(Nc3ccc(OCc4ccncn4)c(Cl)c3)ncnc2cc1OCCCN1CCOCC1 | System = EGFR V3 (Homo sapiens, UniProt P00533, DELINS30-297G) | IC50 = ____
0.05 to 0.1 µM

Form: Entry = C=CC(=O)Nc1cc2c(Nc3ccc(OCc4ccccn4)c(Cl)c3)ncnc2cc1OC[C@H]1CCN(C)C1 | System = EGFR V3 (Homo sapiens, UniProt P00533, DELINS30-297G) | IC50 = ____
0.01 to 0.02 µM

Form: Entry = C=CC(=O)Nc1cc2c(Nc3ccc(OCc4ccccn4)c(Cl)c3)ncnc2cc1OCC1(CN(C)C)CC1 | System = EGFR V3 (Homo sapiens, UniProt P00533, DELINS30-297G) | IC50 = ____
0.03 to 0.05 µM

Form: Entry = C=CC(=O)Nc1cc2c(Nc3ccc(OCc4ccccn4)c(Cl)c3)ncnc2cc1OCCN1CCC1 | System = EGFR V3 (Homo sapiens, UniProt P00533, DELINS30-297G) | IC50 = ____
0.02 to 0.03 µM

* * *

Target: HER2 S310F (Homo sapiens, UniProt P04626, S310F)
Construct: expressed in transfected cells; host or cells: BaF3 (murine pro-B)
Sequence (P04626 23-1255 S310F): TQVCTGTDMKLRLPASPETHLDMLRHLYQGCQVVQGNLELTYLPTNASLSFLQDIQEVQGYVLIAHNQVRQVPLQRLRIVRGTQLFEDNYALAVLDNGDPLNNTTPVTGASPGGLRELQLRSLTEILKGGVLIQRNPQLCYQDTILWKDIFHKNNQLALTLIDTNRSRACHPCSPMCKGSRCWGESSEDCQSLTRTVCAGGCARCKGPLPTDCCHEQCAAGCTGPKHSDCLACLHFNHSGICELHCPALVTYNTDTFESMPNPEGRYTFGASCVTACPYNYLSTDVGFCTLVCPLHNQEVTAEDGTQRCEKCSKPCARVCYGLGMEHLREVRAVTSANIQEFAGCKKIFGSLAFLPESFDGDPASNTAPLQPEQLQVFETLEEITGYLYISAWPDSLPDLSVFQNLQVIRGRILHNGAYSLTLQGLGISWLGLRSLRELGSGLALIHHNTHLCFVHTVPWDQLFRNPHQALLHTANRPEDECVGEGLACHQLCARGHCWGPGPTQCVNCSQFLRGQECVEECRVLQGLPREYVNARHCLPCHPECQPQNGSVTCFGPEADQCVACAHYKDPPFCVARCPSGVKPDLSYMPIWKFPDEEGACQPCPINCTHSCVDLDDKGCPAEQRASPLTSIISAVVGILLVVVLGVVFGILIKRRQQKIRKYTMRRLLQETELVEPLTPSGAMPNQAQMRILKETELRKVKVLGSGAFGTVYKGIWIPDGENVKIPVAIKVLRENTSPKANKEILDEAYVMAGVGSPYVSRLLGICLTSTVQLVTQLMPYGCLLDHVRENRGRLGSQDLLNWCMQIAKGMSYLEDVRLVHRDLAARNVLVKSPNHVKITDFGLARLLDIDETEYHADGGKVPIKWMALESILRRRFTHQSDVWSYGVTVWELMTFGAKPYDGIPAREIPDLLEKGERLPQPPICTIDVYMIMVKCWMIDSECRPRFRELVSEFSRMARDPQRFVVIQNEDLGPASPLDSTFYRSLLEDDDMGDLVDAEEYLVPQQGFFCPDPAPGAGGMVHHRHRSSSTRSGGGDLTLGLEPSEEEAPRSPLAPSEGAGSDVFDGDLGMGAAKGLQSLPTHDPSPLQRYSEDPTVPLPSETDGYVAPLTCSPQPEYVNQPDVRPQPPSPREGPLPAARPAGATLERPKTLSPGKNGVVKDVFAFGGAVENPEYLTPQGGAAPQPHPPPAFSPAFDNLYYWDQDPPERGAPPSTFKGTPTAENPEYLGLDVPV
Experiment: Activity for inhibiting HER2 (Table B), HER2 S310F
Format: cell-based
Conditions: read-out: HER2 S310F, potency code (IC50)
pIC50: −log10 of the molar value.
Give measured pIC50 for each item. Keep answers brief.

Which measured pIC50 value corresponds to C=CC(=O)Nc1cc2c(Nc3ccc(OCc4ccccn4)c(Cl)c3)ncnc2cc1OCCN1CCC(OC)C1 (stereo not drawn) ?
7.70 to 8.00

Which measured pIC50 value corresponds to C=CC(=O)Nc1cc2c(Nc3ccc(OCc4cccc(C)n4)c(Cl)c3)ncnc2cc1OCCN1CC2CCC(C1)O2 ?
6.30 to 6.52

Which measured pIC50 value corresponds to C=CC(=O)Nc1cc2c(Nc3ccc(OCc4ccccn4)c(Cl)c3)ncnc2cc1OCCN1CCOCC1 ?
7.70 to 8.00
